Target: Membrane-bound ghrelin O-acyltransferase MBOAT4 (Mus musculus, UniProt P0C7A3)
Sequence (P0C7A3 whole entry): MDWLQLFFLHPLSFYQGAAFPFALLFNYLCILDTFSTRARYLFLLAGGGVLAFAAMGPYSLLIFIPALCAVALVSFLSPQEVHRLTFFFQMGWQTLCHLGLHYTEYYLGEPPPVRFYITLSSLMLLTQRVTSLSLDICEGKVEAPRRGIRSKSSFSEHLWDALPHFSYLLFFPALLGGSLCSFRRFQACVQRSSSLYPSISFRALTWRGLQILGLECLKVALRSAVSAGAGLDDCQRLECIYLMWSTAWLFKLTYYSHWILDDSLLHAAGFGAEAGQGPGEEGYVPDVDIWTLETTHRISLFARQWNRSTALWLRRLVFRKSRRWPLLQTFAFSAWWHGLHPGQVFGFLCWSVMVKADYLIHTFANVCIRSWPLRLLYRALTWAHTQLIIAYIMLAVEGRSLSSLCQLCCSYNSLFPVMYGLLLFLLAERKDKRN
Assay: Inhibition of N-terminal His10-tagged mouse GOAT expressed in baculovirus infected sf9 insect cell membrane using proghrelin-His8 and [3H]octanoyl CoA as substrate by scintillation counting method
Assay type: cell membranes
Non-standard residues stand in square brackets, D forms with d. Residues, ends and D or L forms follow the SMILES beside them. *: point of attachment. Octanoyl = CCCCCCCC(=O)*; X1 = CC(C)C[C@@H](CN)N*; Dap = NC[C@H](N)C(=O)O
Each entry below carries its recorded log10(IC50).
Quick note: numbers are log10 of IC50, with µM as the unit.

CCCC[C@H]1C[C@H](C(=O)NC[C@H]2CCCN2C(=O)[C@@H](NC(=S)CNC)C(C)(C)C)C1; -1.52

Quote log10(IC50) reported for CCCCCCC[C@H](O)/C=C/[C@H](NC(=O)OCc1ccccc1)C(=O)OC please. 1.95

Tell me measured log10(IC50) for CCCCCCC[C@](C)(O)/C=C/[C@H](NC(=O)OCc1ccccc1)C(=O)OC please. 1.70

Return log10(IC50) (reported value) for this compound: CCCCCCCC(=O)NC[C@H](NC(=O)[C@H](CO)NC(=O)CN)C(=O)N[C@@H](Cc1ccccc1)C(=O)N[C@H](CN)CC(C)C (H-GS[Dap](Octanoyl)F-X1) 0.00

Answer with reported log10(IC50) of CCCCCCCC(=O)OC[C@H](NC(=O)[C@H](CO)NC(=O)CN)C(=O)N[C@@H](Cc1ccccc1)C(=O)N[C@H](CN)CC(C)C (H-GSS(Octanoyl)F-X1) 1.65

The reported numbers originate from ChEMBL document CHEMBL4673189.
